B1: tRNA (parent)
chain: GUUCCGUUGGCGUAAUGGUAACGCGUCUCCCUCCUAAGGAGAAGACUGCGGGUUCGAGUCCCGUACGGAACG

# Variants of: B1
# assay.overview: yeast fitness relative to wild type (ratio to wild type); higher = fitter; tRNA-Arg(CCU), competitive growth, 37 C, YPD
Variants at the floor of the assay were thinned out.

sequence.input | inequality.symbol | yeast fitness
GGUCCGUUGGGGUAAUGGUAACGCGUCUCCCUCCUAACGAGAAAACUGCGGGUUCGAGUCCUGCACGGAACG [U2G C11G G38C G44A C62U U64C] | ≤ | 0.5
GUUCCGUUAGCGUAAUGGUAACGCGUCUCCCUCCUAAGGCGAAGACUGCGGGUUCGAGUCCCGUACGGAACG [G9A A40C] | = | 0.881
GUUCCGUUGGCGUAAUGGUUACGCGUCUCCGUCCUAAGGCGAAGACUGCGGGUUCGAGUCCCGUACGGAACG [A20U C31G A40C] | ≤ | 0.5
GUUCCGUUGGCGUAAUGGUAACGCGUCUCCCUCCUAAGGAGAAGACUGCGGAUUCGAGUCCCCUACGGAACG [G52A G63C] | = | 0.652
GUUCCGUUGGCGUAAUGGUCACGCGUCUCCCUCCUAAAGAGAAGACUGCGGGAUCGAGUCCCGUACGGAACG [A20C G38A U53A] | ≤ | 0.5
GUUCGGUUGGCGUAAUGGUAACGCGUCUUCCUCCUAAGGAGAAGACUGCGGGUGCGAGUGCUGUACGGAACG [C5G C29U U54G C60G C62U] | ≤ | 0.5
GCUCCGUUGGCGUAAUGGUAACGCGUCUCCCUCCUAAGGAGAAGACUGAGGGUUCGAGUCCCGUACGGAACG [U2C C49A] | = | 0.685
GUUCCGUUGGUGUAAUGGGAACGCGUCUCCCUCCUAAGGAGAAGACUGCGGGUUCGAGUCCCGUAAGGAACG [C11U U19G C66A] | = | 0.54
GUCCCGUUGGCGUAAUGGUAACGCGUCUCCCACCUAAGGAGAAGAGUGCGGGUUCGAGUCCAGUACGGAACG [U3C U32A C46G C62A] | ≤ | 0.5
GUUCAGUUGGCGUAAUGGUAACGCGUCUCCCUGUUAAGGAGAAGACUGCGGGUUCGAGUCCCGUACGGAACG [C5A C33G C34U] | ≤ | 0.5
GUUCCGUUGGCGUAAUGGUAACGCGUCUCCCUCCUCAGGAGAAGACUGCGGGUUCGAGUCCGGUACGGAACG [A36C C62G] | = | 0.575
GGUCCGUUGGCGUAAUGGUACUGCGUCUCCCUCCUAAGGAGAAGACUGCGGGUUCGAGUGCCGUACGGAACG [U2G A21C C22U C60G] | ≤ | 0.5
GUUCCGUUGGCCUAAUGGUAACGCCUCUCCCUCCUAAGGAGAAGACUGCGGGUUCGAGUACCGUACGGUACG [G12C G25C C60A A69U] | ≤ | 0.5
GUUCCGUUGGCGUAAUGGUAACGCGUCUCCCUCCUUAGGAGAAGACUGCGGGUUCGAGUUCCGUACGGAACG [A36U C60U] | = | 0.566
GUUCCGUUGGCGUCAUGGUAACGCGUCUCCCUCCCAAGGAGAAGACUGCGGGUUCGAGUCCCGUACGGAACG [A14C U35C] | = | 0.695
GUUCCGUUGGCGUAAUGGUAUCGCGUCUCCCUCCUAAGGAGAAGACUGCGGGUUCGAGUCCCGUACCGAACG [A21U G67C] | = | 0.645
GUUCCGUUGGCGAAAUGGUAACGCGUCUCCCUCCUAAGGAGAAGACUGCGGGUUCGAGUCCCGUACGGCACG [U13A A69C] | = | 0.988
GUUUCGUUGGCGUAAUGGUAACGCAUCUCCCUCGUAAGGAGAAGACUGCGGUUUCGAGUCCCGUACGGAACG [C4U G25A C34G G52U] | ≤ | 0.5
GUUCCGUUGGCGUAAUGGUGACGCGUCUCCCUCCUAAGGAGAAGACUGCGGGUCCGAGUCCCGUACGGACCG [A20G U54C A70C] | = | 0.578
GUUCCGUCGGCGUAAUGGUAGCGCGUCCCCCUCCUAAGGAGAAGACUGCGGGUUCGAGUCCCGUACGGAACG [U8C A21G U28C] | = | 0.637
GUUCCGUUGGCGUAAUGGUAACGCGUCUCCCCCCUAAGGAGAAGAGUGCGGGUUCGAGUCCUGUACGGAACG [U32C C46G C62U] | = | 0.733
GUUCCGUUGGCGUACUGGAAACGCGUCUCCCUCCUAAGGAGAAGACUGCGGGUUCGAGUCCCGAGCUGAACG [A15C U19A U64A A65G G67U] | ≤ | 0.5
GUUCCGUUGGCGUAAUGGUAAAGCGUCUCCCUCCAAAGGAGAAGACUGCGGGUUCGAAUCCCGUACGGAACG [C22A U35A G58A] | ≤ | 0.5
GUUCCGUUGGCGUAAUGGUAACGCGUCUCCCUCCUAAGGAGAAGACCGCGGGUUCGAGUGCCGUACGGAACG [U47C C60G] | = | 0.651
GUUCCGUUGGUGUAAUGGUAACGCGUGUCCCUCCUAAGGAGAUGACUGCGGGUUCGAGUCCCAUACGGAACG [C11U C27G A43U G63A] | ≤ | 0.5
GGUCCGUUGACGUAAUGGUAACGCGUCUCCCUCCUAAGGAGAAGACUGCGGGUUCGAGUCCCGUACGGAACG [U2G G10A] | = | 0.697
GUUCCGUUGGCGUAAGGGUAAAGCGUCUCCCUCCUAAGGAGAAGACUGCGGGUUCGAGUCCAGUACGGAACG [U16G C22A C62A] | ≤ | 0.5
GUUCCGUUGGCGUAAUGGUAACGCGUCUCCCUCCUUAGGAGAAGACUACUGGUUCGUGUCCCGUACGGAACG [A36U G48A G50U A57U] | ≤ | 0.5
GUUCCGUUGGCGUAAUGGUAACGCGUCUCCCUGCGACGGAGACAACUGCGGGUUCGAGUCCCGCACGGAACG [C33G U35G A37C A43C G44A U64C] | ≤ | 0.5
GUUCUGUUGGGGUAAUGGUAAUGCGUCUCGCUCCUAAGGAGAAGACUGCGGGUUCGACUGCCGUACGGAACG [C5U C11G C22U C30G G58C C60G] | ≤ | 0.5
GUUUCGUUGGCAUAAUGGCAACGCGACUCCCUCCUAAGGAGAAGACUGCGGGUUCGAGUCCCGUACGGAACG [C4U G12A U19C U26A] | ≤ | 0.5

Hey, just so you know, these numbers are from the RNAGym collection of RNA variant scans (doi:10.1126/science.aae0568).
